Data origin: PubChem BioAssay (NCATS)

System: W2
Experiment: qHTS profiling for inhibitors of Plasmodium falciparum proliferation (AID 504749); note: nearly all actives have a fitted effect of over 60% in size; note: potency is the fitted concentration of half-maximal effect
Details: P. falciparum in erythrocytes, SYBR Green DNA, 72 h; series mostly up to 12.8 µM
Results filed as inconclusive are left out. Calls of active or inactive are those of the source. Calls come from the whole dose curve; as a rule, active = well fitted inhibition curve with a large enough effect; inconclusive = small, poorly fitted or top-dose-only effect; inactive = flat fitted curve, though single readings scatter.
Measured parameter: Potency

INSERT INTO results (compound, tgt, result) VALUES
  ('CC(=O)N[C@@H]1C(O)OC(CO)C(O)C1O (stereo partly specified)', 'W2', 'inactive'),
  ('COCC(=O)Nc1c(I)c(C(=O)NC[C@@H](O)CO)c(I)c(C(=O)N(C)C[C@@H](O)CO)c1I', 'W2', 'inactive'),
  ('CCN1CCC[C@@H](OC(=O)C(c2ccccc2)c2ccccc2)C1', 'W2', '1440 nM (active)'),
  ('CC1(C)[C@@H](OC(=O)CCC(=O)O)CC[C@@]2(C)[C@H]1CC[C@@]1(C)[C@H]2C(=O)C=C2[C@H]3C[C@](C)(C(=O)O)CC[C@]3(C)CC[C@@]21C', 'W2', 'inactive'),
  ('NCc1ccccc1CC(=O)N[C@@H]1C(=O)N2C(C(=O)O)=C(CSc3nnnn3CC(=O)O)CS[C@@H]12', 'W2', 'inactive'),
  ('C[C@@H](C(=O)O)c1ccc(C(=O)c2ccccc2)s1', 'W2', 'inactive'),
  ('CN1CCC[C@@H](CC2c3ccccc3Sc3ccccc32)C1', 'W2', '1440 nM (active)'),
  ('C[C@@H]1Cc2ccccc2N1NC(=O)c1ccc(Cl)c(S(N)=O)c1 (stereo partly specified)', 'W2', 'inactive'),
  ('C=CC1=C(C(=O)O)N2C(=O)[C@@H](NC(=O)/C(=N\OCC(=O)O)c3csc(N)n3)[C@@H]2SC1', 'W2', 'inactive'),
  ('C=Cc1c(C)/c2[n-]/c1=C\c1[n-]c(c(CC)c1C)/C=c1\[n-]c3c(c1C)C(=O)C(C(=O)[O-])C=3c1[n-]c(c(C)c1CCC(=O)[O-])\C=2.[Cu].[Na+].[Na+] (stereo unspecified)', 'W2', '12000 nM (active)'),
  ('COC(=O)[C@@H]1[C@@H]2C[C@H]3c4[nH]c5cc(OC)ccc5c4CCN3C[C@@H]2C[C@H](OC(=O)/C=C\c2cc(OC)c(OC)c(OC)c2)[C@H]1OC', 'W2', '1810 nM (active)'),
  ('C[C@H](Oc1ccccc1)C(=O)N[C@@H]1C(=O)N2[C@@H]1SC(C)(C)[C@@H]2C(=O)O', 'W2', 'inactive'),
  ('Cc1onc(-c2ccccc2Cl)c1C(=O)N[C@H]1C(=O)N2[C@H]1SC(C)(C)[C@H]2C(=O)O', 'W2', 'inactive'),
  ('CN1C(=O)C[C@H](c2ccccc2)C1=O', 'W2', 'inactive'),
  ('CC(=O)O[C@]1(C(C)=O)CC[C@@H]2[C@@H]3C=C(C)C4=CC(=O)CC[C@@]4(C)[C@H]3CC[C@]21C', 'W2', 'inactive'),
  ('C[N+]12CCC(CC1)[C@@H](OC(=O)C(O)(c1ccccc1)c1ccccc1)C2', 'W2', 'inactive');
